- System: Schistosoma mansoni
- test: Antischistosomal activity against Schistosoma mansoni isolated from infected Syrian golden hamsters assessed as worm mortality at 100 uM treated for overnight followed by drug washout measured on day 5 relative to control
- Type: functional
Lab note: anything with Activity below 40% is marked rule met; values at 40% or higher are marked rule not met.

Reference set (5 entries):
In [3]: df
Out[3]:
                                   compound   targetortestsystem           cat
0  CCCCCCCCCCCCCCCCCCOCCOP(=O)(O)CO[C@H](CO)Cn1cnc2c(=O)[nH]c(N)nc21  Schistosoma mansoni      rule met
1  CCCCCCCCCCCCCCCCOCCCOP1(=O)CO[C@@H](Cn2cnc3c(N)ncnc32)CO1 (stereo partly drawn)  Schistosoma mansoni  rule not met
2      Nc1ncnc2c1ncn2C[C@@H](CO)OCP(=O)(O)O  Schistosoma mansoni      rule met
3  CCCCCCCCCCCCCCCCOCCCOP(=O)(O)CO[C@H](CO)Cn1cnc2c(N)ncnc21  Schistosoma mansoni      rule met
4  CCCCCCCCCCCCCCCCCCOCCOP(=O)(O)CO[C@H](CO)Cn1cnc2c(N)ncnc21  Schistosoma mansoni  rule not met

[in] Strictly below 40% in Activity? CCCCCCCCCCCCCCCCOCCCOP1(=O)CO[C@@H](Cn2ccc(N)nc2=O)CO1 (stereo partly drawn)
[out] rule not met

[in] Also, O=C(C1CCCCC1)N1CC(=O)N2CCc3ccccc3C2C1 (stereo not drawn) please.
[out] rule not met
